Recorded measurements of inhibition at 2 µM, one per entry
biological target: human NTPDase1 (Homo sapiens); construct: expressed in transfected cells; host or cells: COS-7 cells (membrane preparation); assay: Malachite green assay, human NTPDase1; format: biochemical; settings: 2 μM compound; 50 µM ATP; COS-7 membrane preparation; read-out: % inhibition at 2 μM concentration, NTPDase1

In [3]: df
Out[3]:
                                   compound  assay_result
0  Nc1c(S(=O)(=O)O)cc(Nc2ccc(Oc3ccc(Br)cc3)cc2)c2c1C(=O)c1ccccc1C2=O [Compound 46]           33%
1  Cc1ccc2ccccc2c1Nc1cc(S(=O)(=O)O)c(N)c2c1C(=O)c1ccccc1C2=O [Compound 16]            3%
2  Nc1c(S(=O)(=O)O)cc(Nc2ccc(S(=O)(=O)O)c(Nc3nc(Cl)nc(Cl)n3)c2)c2c1C(=O)c1ccccc1C2=O [Compound 42]           -2%
3  Nc1c(S(=O)(=O)O)cc(Nc2cccc3cccc(S(=O)(=O)O)c23)c2c1C(=O)c1ccccc1C2=O [Compound 17]           -1%
4  Nc1c(S(=O)(=O)O)cc(Nc2ccc(O)c(C(=O)O)c2)c2c1C(=O)c1ccccc1C2=O [Compound 33]          -12%

Now, please, on to the next compound.
The compound Nc1c(S(=O)(=O)O)cc(Nc2cccc(Cc3ccccc3)c2)c2c1C(=O)c1ccccc1C2=O [Compound 39] showed inhibition at 2 µM equal to 36%

* * *

Biological target: human NTPDase1 (Homo sapiens)
Construct: expressed in transfected cells; host or cells: COS-7 cells (membrane preparation)
Sequence (P49961 1-510): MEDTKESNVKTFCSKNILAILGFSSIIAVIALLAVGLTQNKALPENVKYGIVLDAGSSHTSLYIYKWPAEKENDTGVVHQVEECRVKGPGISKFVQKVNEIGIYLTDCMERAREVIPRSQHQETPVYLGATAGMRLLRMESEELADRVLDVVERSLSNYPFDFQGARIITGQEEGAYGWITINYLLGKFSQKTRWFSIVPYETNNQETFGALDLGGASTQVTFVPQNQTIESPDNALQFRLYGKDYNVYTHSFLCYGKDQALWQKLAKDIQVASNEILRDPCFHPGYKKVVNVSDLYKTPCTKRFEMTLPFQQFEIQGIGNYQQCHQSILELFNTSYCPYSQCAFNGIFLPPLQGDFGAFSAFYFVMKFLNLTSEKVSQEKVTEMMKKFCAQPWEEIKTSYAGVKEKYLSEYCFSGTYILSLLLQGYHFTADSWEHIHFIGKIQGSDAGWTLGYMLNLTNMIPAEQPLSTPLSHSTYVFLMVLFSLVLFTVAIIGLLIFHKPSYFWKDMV
Assay: Malachite green assay, human NTPDase1
Type: biochemical
Conditions: 2 μM compound; 50 µM ATP; COS-7 membrane preparation; read-out: % inhibition at 2 μM concentration, NTPDase1
measured_parameter: inhibition at 2 µM (%)
// return numeric value only (unit: %, not printed)

In [3]: df
Out[3]:
                                   compound  measured_parameter  assay_result
0  Nc1c(S(=O)(=O)O)cc(Nc2cccc3ccccc23)c2c1C(=O)c1ccccc1C2=O [Compound 15]  inhibition at 2 µM           -19
1  CCc1cccc(Nc2cc(C)c(N)c3c2C(=O)c2ccccc2C3=O)c1 [Compound 56]  inhibition at 2 µM            -3
2  Nc1c(S(=O)(=O)O)cc(Nc2cccc(Br)c2)c2c1C(=O)c1ccccc1C2=O [Compound 22]  inhibition at 2 µM            -4

// recorded inhibition at 2 µM for O=C1c2ccccc2C(=O)c2c(Nc3cccc(F)c3)cc(S(=O)(=O)O)cc21 [Compound 57] : 14

# inhibition at 2 µM (compound: Nc1c(S(=O)(=O)[O-])cc(Nc2cccc(F)c2C(=O)O)c2c1C(=O)c1ccccc1C2=O.[Na+] [Compound 35] ) is -21
